The reported measurements were obtained from paper PMC6882492.

Parameter: IC50. Scope: all listed entries.
Target entity: hDGAT2 (Homo sapiens, UniProt Q96PD7)
Sequence (Q96PD7 1-388): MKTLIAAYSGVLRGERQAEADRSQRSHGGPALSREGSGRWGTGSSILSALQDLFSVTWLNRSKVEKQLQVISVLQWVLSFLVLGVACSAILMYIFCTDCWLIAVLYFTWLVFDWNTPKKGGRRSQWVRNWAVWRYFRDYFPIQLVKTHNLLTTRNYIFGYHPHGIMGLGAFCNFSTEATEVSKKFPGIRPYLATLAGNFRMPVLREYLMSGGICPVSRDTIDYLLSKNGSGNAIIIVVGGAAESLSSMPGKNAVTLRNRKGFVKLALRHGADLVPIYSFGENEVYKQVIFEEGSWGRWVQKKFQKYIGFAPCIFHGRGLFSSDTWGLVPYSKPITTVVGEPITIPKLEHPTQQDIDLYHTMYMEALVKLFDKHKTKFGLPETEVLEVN

Reported IC50 for O=C(O)C[C@H]1CC[C@H](c2ccc(-c3ccc(Nc4ccc(C(F)(F)F)nc4)cn3)cc2)CC1 [Compound 2, pradigastat, reference compound] : what is it?
> 10 µM

Attention now turns to another entry.
Reported IC50 for O=C([O-])C[C@H]1CC[C@@H](c2csc3c(-c4ccc(NC(=O)Nc5cccc(Cl)c5)cc4)ncnc32)CC1.[Na+] [Compound 17a] : what is it?
> 10 µM
